Recorded values, source ChEMBL document CHEMBL4765237.

Target: Serine/threonine-protein kinase Nek9 (Homo sapiens)
Sequence (Q8TD19 whole entry): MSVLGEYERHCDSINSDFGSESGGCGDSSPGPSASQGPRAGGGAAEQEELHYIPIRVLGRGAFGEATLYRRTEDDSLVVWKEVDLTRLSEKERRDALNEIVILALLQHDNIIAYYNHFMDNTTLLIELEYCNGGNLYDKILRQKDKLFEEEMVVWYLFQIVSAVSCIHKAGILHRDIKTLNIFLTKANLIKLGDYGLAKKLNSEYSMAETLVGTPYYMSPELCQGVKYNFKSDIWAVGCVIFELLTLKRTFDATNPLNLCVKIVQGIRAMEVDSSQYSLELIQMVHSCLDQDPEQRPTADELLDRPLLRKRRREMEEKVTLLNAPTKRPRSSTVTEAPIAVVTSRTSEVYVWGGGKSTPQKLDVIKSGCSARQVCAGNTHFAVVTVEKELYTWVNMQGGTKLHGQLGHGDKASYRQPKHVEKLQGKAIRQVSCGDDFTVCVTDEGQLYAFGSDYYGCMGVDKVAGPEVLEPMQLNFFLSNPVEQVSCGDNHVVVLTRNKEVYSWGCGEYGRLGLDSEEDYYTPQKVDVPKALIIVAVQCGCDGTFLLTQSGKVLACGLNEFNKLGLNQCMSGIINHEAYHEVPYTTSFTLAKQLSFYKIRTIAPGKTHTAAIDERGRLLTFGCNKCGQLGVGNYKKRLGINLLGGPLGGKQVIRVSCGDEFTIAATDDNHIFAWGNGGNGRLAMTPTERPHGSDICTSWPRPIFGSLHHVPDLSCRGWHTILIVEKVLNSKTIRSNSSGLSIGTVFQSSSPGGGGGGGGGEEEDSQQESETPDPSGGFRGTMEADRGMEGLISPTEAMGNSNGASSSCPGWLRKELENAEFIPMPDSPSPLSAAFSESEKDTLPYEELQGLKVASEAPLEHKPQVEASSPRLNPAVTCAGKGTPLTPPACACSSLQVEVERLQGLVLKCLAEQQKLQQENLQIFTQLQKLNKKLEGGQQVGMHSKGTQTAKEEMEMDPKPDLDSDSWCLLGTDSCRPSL
Experiment: Inhibition of recombinant human NEK9 (1 to 324 residues) using myelin basic protein as substrate measured after 40 mins in presence of [gamma33P]ATP by scintillation counting based radiometry assay
pIC50: −log10 of the molar value.
endpointName: pIC50

CC(C)(C)c1cc(NC(=O)Nc2ccc(Nc3ncnc4c3OCCCN4)cc2)no1
5.74

* * *

Target: Proto-oncogene tyrosine-protein kinase receptor Ret (Homo sapiens, UniProt P07949, V804M)
Sequence (P07949 29-1114 V804M limits assumed): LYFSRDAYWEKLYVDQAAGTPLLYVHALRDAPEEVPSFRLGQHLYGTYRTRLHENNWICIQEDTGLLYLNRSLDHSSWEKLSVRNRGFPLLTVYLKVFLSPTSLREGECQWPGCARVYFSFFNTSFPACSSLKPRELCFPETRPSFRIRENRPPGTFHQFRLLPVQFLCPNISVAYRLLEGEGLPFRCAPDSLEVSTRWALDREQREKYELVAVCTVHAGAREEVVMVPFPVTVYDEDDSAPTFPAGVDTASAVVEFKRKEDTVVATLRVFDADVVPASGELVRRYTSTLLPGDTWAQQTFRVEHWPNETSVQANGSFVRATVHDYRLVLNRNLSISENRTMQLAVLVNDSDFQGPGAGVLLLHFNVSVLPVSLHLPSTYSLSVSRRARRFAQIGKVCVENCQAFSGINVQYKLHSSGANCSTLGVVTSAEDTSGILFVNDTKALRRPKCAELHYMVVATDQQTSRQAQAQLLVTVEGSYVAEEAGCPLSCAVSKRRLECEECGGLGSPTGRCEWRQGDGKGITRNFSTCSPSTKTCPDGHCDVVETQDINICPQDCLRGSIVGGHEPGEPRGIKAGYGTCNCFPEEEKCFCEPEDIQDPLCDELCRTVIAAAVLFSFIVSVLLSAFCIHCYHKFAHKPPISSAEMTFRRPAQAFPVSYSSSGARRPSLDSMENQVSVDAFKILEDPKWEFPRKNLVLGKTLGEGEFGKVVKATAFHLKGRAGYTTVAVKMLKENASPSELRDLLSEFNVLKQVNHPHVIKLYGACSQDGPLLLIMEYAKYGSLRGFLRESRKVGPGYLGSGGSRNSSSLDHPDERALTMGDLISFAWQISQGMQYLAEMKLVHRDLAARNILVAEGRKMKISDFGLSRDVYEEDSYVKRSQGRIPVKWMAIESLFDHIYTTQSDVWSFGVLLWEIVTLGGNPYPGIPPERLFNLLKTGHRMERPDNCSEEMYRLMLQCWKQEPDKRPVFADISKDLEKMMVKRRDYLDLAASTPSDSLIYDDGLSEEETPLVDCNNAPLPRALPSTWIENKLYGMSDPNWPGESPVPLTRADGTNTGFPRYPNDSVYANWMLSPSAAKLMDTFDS
pIC50: −log10 of the molar value.
Label false if pIC50 falls below 6; label true in every other case.

CC(C)(C)c1csc(NC(=O)Nc2ccc(Nc3ncnc4c3OCCN4)cc2)n1
false
COc1cccc(NC(=O)Nc2ccc(Nc3ncnc4c3OCCN4)cc2)c1
false
O=C(Nc1ccc(Nc2ncnc3c2OCCN3)cc1)Nc1cccc2ccccc12
false
CC(C)(C)c1cc(NC(=O)Nc2ccc(Nc3ncnc4c3OCCN4)c(F)c2)no1
true
Cc1cc(NC(=O)Nc2cc(C(C)(C)C)on2)ccc1Nc1ncnc2c1OCCN2
true
CC(C)N1CCOc2c(Nc3ccc(NC(=O)Nc4cc(C(C)(C)C)on4)cc3)ncnc21
false
CN1CCOc2c(Nc3ccc(NC(=O)Nc4cc(C(C)(C)C)on4)cc3)ncnc21
true
O=C(Nc1ccc(Nc2ncnc3c2OCCN3)cc1)Nc1cccc(-c2ccccc2)c1
false
O=C(Nc1ccc(Nc2ncnc3c2OCCN3)cc1)Nc1ccc(C(F)(F)F)cc1
true
CC(C)(C)c1cc(NC(=O)Nc2ccc(Nc3ncnc4c3OCCN4)cc2)no1
true
CC(C)(C)c1cc(NC(=O)Nc2ccc(Nc3ncnc4c3OCCN4)cc2F)no1
true
CC(C)(C)c1cc(NC(=O)Nc2ccc(Nc3ncnc4c3OCCN4)c(O)c2)no1
true
O=C(Nc1ccc(Nc2ncnc3c2OCCN3)cc1)Nc1cccs1
false
Cc1ccc(F)c(NC(=O)Nc2ccc(Nc3ncnc4c3OCCN4)cc2)c1
false
CC(C)(C)c1cc(NC(=O)Nc2ccc(Nc3ncnc4c3OCCN4)nc2)no1
true
O=C(Nc1ccc(Nc2ncnc3c2OCCN3)cc1)Nc1ccc(Cl)c(C(F)(F)F)c1
true
O=C(Nc1ccc(Cl)cc1)Nc1ccc(Nc2ncnc3c2OCCN3)cc1
false
